test system: Aβ42; test: Aβ42 production in H4 neuroglioma cells stably expressing human APP695 (Meso Scale Discovery electrochemiluminescence assay); format: cell-based; settings: higher ratio = more specific inhibition of Aβ42 over Aβ total
QUANTITY KIND: Ratio Aβ(total)/Aβ42 (Aβ total IC50/Aβ42 IC50)

Solved entries (count: 3):
COCCN1C(=O)C2(CCOC2)N(C)c2nc(Nc3ccc(-c4ccnc(C)c4)cc3)ncc21 (stereo not drawn): >27
COCCN1C(=O)C2(CCOC2)N(C)c2nc(Nc3ccc(-n4cnc(C)n4)c(OC)c3)ncc21 (stereo not drawn): >15
COc1cc(Nc2ncc3c(n2)N(C)C2(COCCOC2)C(=O)N3C)ccc1-n1cnc(C)c1: >112

Endpoint output: Ratio Aβ(total)/Aβ42 (Aβ total IC50/Aβ42 IC50) of COc1cc(Nc2ncc3c(n2)N(CC2CCOCC2)C2(CCOC2)C(=O)N3CC2CCOCC2)ccc1-n1cnc(C)c1 (stereo not drawn) . Value?
>10

Endpoint output: Ratio Aβ(total)/Aβ42 (Aβ total IC50/Aβ42 IC50) of COc1cc(Nc2ncc3c(n2)N(C)C2(CCC2)C(=O)N3CC(F)(F)F)ccc1-c1cnc(C)o1 . Value?
>517

Endpoint output: Ratio Aβ(total)/Aβ42 (Aβ total IC50/Aβ42 IC50) of COc1cc(Nc2ncc3c(n2)NC2(CCOC2)C(=O)N3C2COC2)ccc1-n1cnc(C)c1 (stereo not drawn) . Value?
>3

Endpoint output: Ratio Aβ(total)/Aβ42 (Aβ total IC50/Aβ42 IC50) of COc1cc(Nc2ncc3c(n2)N(C)C2(CCOC2)C(=O)N3C)ccc1-c1cnc(C)o1 (stereo not drawn) . Value?
>315

Endpoint output: Ratio Aβ(total)/Aβ42 (Aβ total IC50/Aβ42 IC50) of COc1cc(Nc2nc3c(c(C(F)(F)F)n2)N(C)C(=O)C2(CCOCC2)N3C)ccc1-n1cnc(C)c1 [Example 37d] . Value?
>36

Endpoint output: Ratio Aβ(total)/Aβ42 (Aβ total IC50/Aβ42 IC50) of COCCN1C(=O)C2(CCOCC2)N(C)c2nc(Nc3ccc(-n4cnc(C)n4)c(OC)c3)ncc21 . Value?
>13
